We begin with a simple list: items and their reported H50 (50% of hemolysis).
System: erythrocytes
Type: cell-based, human
Details: pH 7.6
*1 amine or outer side, *2 acyl side, *3 side chain or, on linkers, in order; H or OH if unused. Where a SMILES comes first, the peptide text is derived from it. Bridges are numbered along the chain shown (N, C = ends). [ ]: non-standard residue; d: D form. X2 = CC12SC(C(=O)NN[*:2])=CC1=C1CCCC1=C1C=C(C(=O)[*:1])SC12C; X1 = Cc1sc(C(=O)NN[*:2])cc1C1=C(c2cc(C(=O)[*:1])sc2C)CCC1; Orn = NCCC[C@H](N)C(=O)O

compound	unit.of.measurement	H50 (50% of hemolysis)
Cc1sc2cc1C1=C(CCC1)c1cc(sc1C)C(=O)N1CCC[C@H]1C(=O)N[C@@H](C(C)C)C(=O)N[C@@H](CCCN)C(=O)N[C@@H](CC(C)C)C(=O)N[C@H](Cc1ccccc1)C(=O)N1CCC[C@H]1C(=O)N[C@@H](C(C)C)C(=O)N[C@@H](CCCN)C(=O)NNC2=O [GS-Sw(LF), “open”, cyclo(^DFPVO-1b-PVOL)] (PV[Orn]L[dF]PV[Orn]; linker N-C via X1)	µg/mL	47
CC(C)C[C@@H]1NC(=O)[C@H](CCCN)NC(=O)[C@H](C(C)C)NC(=O)[C@@H]2CCCN2C(=O)[C@@H](Cc2ccccc2)NC(=O)[C@H](CC(C)C)NC(=O)[C@H](CCCN)NC(=O)[C@H](C(C)C)NC(=O)[C@@H]2CCCN2C(=O)[C@@H](Cc2ccccc2)NC1=O [GS, [PVOL^DFPVOL^DF]cyclo, reference compound] (cyclo(L[dF]PV[Orn]L[dF]PV[Orn]))	µg/mL	12
CC(C)C[C@@H]1NC(=O)[C@H](CCCN)NC(=O)[C@H](C(C)C)NC(=O)[C@@H]2CCCN2C(=O)[C@@H](Cc2ccccc2)NC(=O)[C@H](CC(C)C)NC(=O)[C@H](CCCN)NC(=O)C2=CC3=C4CCCC4=C4C=C(SC4(C)C3(C)S2)C(=O)NNC(=O)[C@@H](Cc2ccccc2)NC1=O (stereo partly shown) [GS-Sw(PV), “closed”, cyclo(^DFPVOL^DF-1b-OL)] ([Orn]L[dF]PV[Orn]L[dF]; linker N-C via X2)	µg/mL	58
Cc1sc2cc1C1=C(CCC1)c1cc(sc1C)C(=O)N[C@@H](C(C)C)C(=O)N[C@@H](CCCN)C(=O)N[C@@H](CC(C)C)C(=O)N[C@H](Cc1ccccc1)C(=O)N1CCC[C@H]1C(=O)N[C@@H](C(C)C)C(=O)N[C@@H](CCCN)C(=O)N[C@@H](CC(C)C)C(=O)NNC2=O [GS-Sw(FP), “open”, cyclo(^DFPVOL-1b-VOL)]	µg/mL	6.5
